// provenance: patent US20180305451A1

- ASSAYED_SYSTEM: T1, HIDE1_HH-1 (Human ECD + human IgG1 Fc mutated C220S at hinge), without SP (human)
- T1 construct: Batch #280 in the Serotec and phage display work; also called HIDE1 hECD-hIg; HIDE1 (H:H) recombinant Fc fusion protein
- T1 sequence (chain, as listed by the source C220S C220S limits assumed): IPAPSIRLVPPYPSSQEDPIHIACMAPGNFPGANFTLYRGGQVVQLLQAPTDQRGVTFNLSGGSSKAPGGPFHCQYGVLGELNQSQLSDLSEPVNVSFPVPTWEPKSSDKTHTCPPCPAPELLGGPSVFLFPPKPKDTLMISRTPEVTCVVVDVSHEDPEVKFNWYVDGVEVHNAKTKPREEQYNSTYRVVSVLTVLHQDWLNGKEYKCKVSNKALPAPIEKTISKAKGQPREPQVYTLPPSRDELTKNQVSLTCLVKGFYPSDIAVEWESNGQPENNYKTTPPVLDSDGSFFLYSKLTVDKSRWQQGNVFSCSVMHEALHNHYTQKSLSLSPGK
- ASSAY_TEXT: SPR (ProteOn), Fab PPE over captured HIDE1-HH-1, 1:1 fit
- Method: Preliminary Fab binding kinetics were determined using Fab PPEs produced as described in paragraph [001064] (“Fab PPE production”)[001064]. Studies were conducted using Biacore 3000 and ProteOn XPR 36 instruments at 22° C. A high density goat anti-human Fc antibody (Invitrogen) was immobilized by standard amine coupling over all lanes of a GLC chip using a ProteOn XPR 36 biosensor (Biorad). […]
pKd: −log10 of the molar value.
Measured pKd accompanies every entry in the list below.
READOUT_KIND: pKd

CPA.12.002 Fab (A02 S397-01.A08) (Fab, V domains shown, XOMA031 library Fab in periplasmic extract) VH: EVQLVESGGGLVQPGRSLRLSCAASGFTFSSYAMHWVRQVPGKGLEWVAVISYDGSNKYYADSVKGRFTISRDNSKNTLYLQMNSLRAEDTAVYYCAKPMYSSGWYPLGYWGQGTLVTVSS VL: DIVMTQTPLSLPVTPGQPASISCRSSQSPLDTDGNTYLDWYLQRPGQSPQLLIYTLSNRASGVPDRFSGSGSGTDFTLKISRVEAEDVGIYYCMQRIQYPLTFGPGTRLEIKR
8.10
CPA.12.004 Fab (A04 S397-01.D06) (Fab, V domains shown, XOMA031 library Fab in periplasmic extract) VH: EVQLVETGGGLIQPGRSLRLSCVASDFRFSNHAMHWVRQAPGKELEWVAVISSDGSNRQYAYSVKGRFTISRDNSKNTLYLEMNILGPEDTAVYFCVRSHLGPEWYYGMDVWGQGTTVTVSS VL: DIQMTQSPSSLSTSVGDSVTITCRSSQSISTFLSWFQHKPGKAPNLLIYDASSLQSGVPSRFSGSGSGTDFTLTISSLQPEDFATYYCQQSDYLPFTFGPGTKVEIKR
8.68
CPA.12.006 Fab (A07 S398-01.D09) (Fab, V domains shown, XOMA031 library Fab in periplasmic extract) VH: EVQLVESGGGVVQPGRSLRLSCAASGFTFSSFAMHWVRQAPGKGPEWLGIILYEGGHVVYADSVRGRLTISRDNSKNTLYLQMDSLRDEDTAVYYCAKGFYHAFDVWGQGTMVTVSS VL: QAVLTQPASLSASPGASASLTCTLRSGINVGTYRIYWYQQKPGSPPQYLLRYKSDSDKQQGSGVPSRFSGSKDASANAGILLISGLQSEDEADYYCMIWHSSAWVFGGGTQLTVLG
8.41
